Values were extracted from patent US8017612B2.

biological target: HCV polymerase (NS5B) type 1b (Hepatitis C virus genotype 1b); construct: a region encoding NS5B (J Virol 1991 March, 65(3), 1105-13, 544 amino acids after deletion of 47 amino acids on the C-terminal); 6xHis (C); made in house; host or cells: Escherichia coli; assay: Assay of enzyme (HCV polymerase) inhibitory activity, type 1b enzyme; type: biochemical, HCV BK strain (type 1b); settings: HCV polymerase inhibitory activity (IC50), 1b, type 1b enzyme 0.5 μg/ml, 25° C., 60 min
Sequence (P26663 2420-2963): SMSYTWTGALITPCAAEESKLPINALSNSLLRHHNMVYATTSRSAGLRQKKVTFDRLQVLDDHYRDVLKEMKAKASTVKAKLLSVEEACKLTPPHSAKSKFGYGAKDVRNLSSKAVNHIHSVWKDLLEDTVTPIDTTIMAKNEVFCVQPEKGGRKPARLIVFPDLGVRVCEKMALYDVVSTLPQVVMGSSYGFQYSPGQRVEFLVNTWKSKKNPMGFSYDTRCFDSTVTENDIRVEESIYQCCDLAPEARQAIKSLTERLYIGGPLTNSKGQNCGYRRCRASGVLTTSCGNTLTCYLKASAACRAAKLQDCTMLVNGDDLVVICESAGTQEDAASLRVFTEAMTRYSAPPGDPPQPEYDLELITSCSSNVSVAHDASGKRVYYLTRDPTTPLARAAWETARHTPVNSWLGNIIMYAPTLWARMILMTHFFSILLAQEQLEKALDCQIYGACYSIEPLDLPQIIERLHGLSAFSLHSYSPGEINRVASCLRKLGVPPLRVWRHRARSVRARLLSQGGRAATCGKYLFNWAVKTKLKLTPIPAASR
Counter-ions that a name gives are not always drawn.
Provide the reported IC50 of each item.

Example entries and their recorded answers appear below.
[[record]]
molecule = "Cc1nc(N2CCN(S(=O)(=O)c3ccc(C(F)(F)F)cc3)[C@@H](C(=O)NCc3ccc(C(C)C)cc3)C2)oc1C(=O)O [Example 371, trifluoroacetate]"
tested_system = "HCV polymerase (NS5B) type 1b (Hepatitis C virus genotype 1b)"
metric = "IC50"
observed_measurement = "100 to 1000 nM"

[[record]]
molecule = "CC(C)c1ccc(CNC(=O)[C@H]2CN(C(=O)CC#N)CCN2S(=O)(=O)c2ccc(C(F)(F)F)cc2)cc1"
tested_system = "HCV polymerase (NS5B) type 1b (Hepatitis C virus genotype 1b)"
metric = "IC50"
observed_measurement = "< 100 nM"

[[record]]
molecule = "CC(C)c1ccc(CNC(=O)[C@H]2CN(C(=O)Cc3cccnc3)CCN2S(=O)(=O)c2ccc(C(F)(F)F)cc2)cc1"
tested_system = "HCV polymerase (NS5B) type 1b (Hepatitis C virus genotype 1b)"
metric = "IC50"
observed_measurement = "100 to 1000 nM"

[[record]]
molecule = "CC(=O)N1CCN(S(=O)(=O)c2ccc(OC(F)(F)F)cc2)[C@@H](C(=O)NCc2ccc(-c3ccccc3)s2)C1"
tested_system = "HCV polymerase (NS5B) type 1b (Hepatitis C virus genotype 1b)"
metric = "IC50"
observed_measurement = "100 to 1000 nM"

[[record]]
molecule = "CC(C)c1ccc(CNC(=O)[C@H]2CN(C(=O)Nc3nncs3)CCN2S(=O)(=O)c2ccc(C(F)(F)F)cc2)cc1"
tested_system = "HCV polymerase (NS5B) type 1b (Hepatitis C virus genotype 1b)"
metric = "IC50"
observed_measurement = "< 100 nM"


Answer with IC50 of CC(=O)N1CCN(S(=O)(=O)c2ccc(N(C)C)cc2)C(C(=O)NCc2ccc(C(F)(F)F)cc2)C1 (stereo not drawn) measured for HCV polymerase (NS5B) type 1b (Hepatitis C virus genotype 1b).
> 1000 nM
